Reported values of viability at 28.5 h, 10 µM for individual entries
Protocol: in vitro
Details: human, hela cells, % viability
Numeric answer only, unit % assumed.

Reference set, count: 2
1. CCN1CCN(c2ccc(C(=O)OC)cc2NC(=O)c2ccc(C#N)cc2F)CC1 | 101
2. CC1CCN(C(=S)Nc2ccccc2)CC(C)(C)C1 (centres unmarked) | 93.9

Value of measured viability at 28.5 h, 10 µM for the entry CNC(=O)CN1C(=O)CC2(C1=O)C(=O)N(CCOC)c1ccc(C)cc12 (centres unmarked) : 97.1

Value of measured viability at 28.5 h, 10 µM for the entry `Cc1nn(CC(=O)N(C(C)C)C(C)C)c(=O)c2cc3occc3n12` : 98.4

Value of measured viability at 28.5 h, 10 µM for the entry `O=C(O)c1cn(C2CC2)c2cc(N3CCN(C(=O)Cc4ccsc4)CC3)c(F)cc2c1=O` : 88.9

Where do these numbers come from? They come from paper PMC12040169.
